B1: Hairpin Ribozyme (parent)
chain: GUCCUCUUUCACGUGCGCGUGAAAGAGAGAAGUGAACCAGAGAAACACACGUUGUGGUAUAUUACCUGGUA

- Variants of: B1
- Procedure Summary: self-cleavage, relative activity (ratio to wild type); higher = more cleavage; co-transcriptional
Experimental Readout: self-cleavage
Answer using only a numeral; do not append any unit.

Request: // fetch self-cleavage given entry C4U G57A
Response: 0.155

Request: // fetch self-cleavage given entry G19C G34A
Response: 1.08

Request: // fetch self-cleavage given entry A24C G42A
Response: 0.195

Request: // fetch self-cleavage given entry A26C U63A
Response: 0.175

Request: // fetch self-cleavage given entry G17C C66G
Response: 0.0719

Request: // fetch self-cleavage given entry A43C A44G
Response: 0.0582

Request: // fetch self-cleavage given entry C16A U67G
Response: 0.182

Request: // fetch self-cleavage given entry G19U C50G
Response: 0.199

Request: // fetch self-cleavage given entry C10A A24C
Response: 0.598

Request: // fetch self-cleavage given entry A30G G51C
Response: 0.199

Request: // fetch self-cleavage given entry G40A A64G
Response: 0.119

Request: // fetch self-cleavage given entry G27A U53A
Response: 0.371

Request: // fetch self-cleavage given entry A36U C66G
Response: 0.338

Request: // fetch self-cleavage given entry U8G U53A
Response: 0.567

Request: // fetch self-cleavage given entry U2C G13U
Response: 0.121

Request: // fetch self-cleavage given entry A30G G40A
Response: 0.0732

Request: // fetch self-cleavage given entry G1A U70G
Response: 0.0827

Request: // fetch self-cleavage given entry C50U G68A
Response: 0.194

Request: // fetch self-cleavage given entry G1C U7C
Response: 0.488

Request: // fetch self-cleavage given entry A24C A61U
Response: 0.189

Request: // fetch self-cleavage given entry C10G A11C
Response: 0.799

Request: // fetch self-cleavage given entry G25C A39G
Response: 0.168

Request: // fetch self-cleavage given entry C12G G15A
Response: 0.881

Request: // fetch self-cleavage given entry A23G C65G
Response: 0.392

Request: // fetch self-cleavage given entry A24G U58G
Response: 0.517

Request: // fetch self-cleavage given entry C6A G54C
Response: 0.209

Request: // fetch self-cleavage given entry C38G C46G
Response: 0.161

Request: // fetch self-cleavage given entry U8A A31G
Response: 0.448

Request: // fetch self-cleavage given entry U33G U53G
Response: 0.211

Request: // fetch self-cleavage given entry C37G C46G
Response: 0.211

Request: // fetch self-cleavage given entry A23C U63G
Response: 0.273

Request: // fetch self-cleavage given entry A24U U62C
Response: 0.293

Request: // fetch self-cleavage given entry A23G A28U
Response: 0.417

Request: // fetch self-cleavage given entry A28U G32U
Response: 0.258

Request: // fetch self-cleavage given entry C48A A64G
Response: 0.127

Request: // fetch self-cleavage given entry U20C A30C
Response: 0.217

Request: // fetch self-cleavage given entry C18U A71C
Response: 1.33

Request: // fetch self-cleavage given entry G54C A59U
Response: 0.18

Request: // fetch self-cleavage given entry G42A U58C
Response: 0.21

Request: // fetch self-cleavage given entry G40U U67G
Response: 0.151

Request: // fetch self-cleavage given entry A39C G57C
Response: 0.127

Request: // fetch self-cleavage given entry A23G G54A
Response: 0.489
